assay.setup: 303.15 K; 101.3 kPa; Liquid
outcome.measure: viscosity (mPa·s)
Reply numerically in mPa·s, unit not repeated.

{"columns": ["molecule", "viscosity [mPa·s]"],
 "data": [
  ["CC(C)O", 1.788],
  ["CCC(C)O (stereo unspecified)", 2.597],
  ["CCCCCC(C)O (stereo unspecified)", 4.151],
  ["O=C1CCCCC1", 1.847],
  ["CCCCC(C)O (stereo unspecified)", 3.411]
]}

Moving on to another molecule below.
molecule CCCC(C)O (stereo unspecified) , viscosity observed: 2.801

###

assay.setup: 313.15 K; 101.3 kPa; Liquid
outcome.measure: mass density (kg/m3)
Answer format: numeric, kg/m3 implied, no suffix.

Per the records, this compound ( CCCC(C)O (centres undefined) [pentan-2-ol] ) has mass density equal to 792.51

# compound CCCCCC(C)O (centres undefined) [2-heptanol] ; its mass density = 801.14

For record CCCCC(C)O (centres undefined) [2-hexanol] the listed mass density is 797.96

Quick note, mass density for CCC(C)O (centres undefined) [butan-2-ol] landed at 789.15

FYI, the data here is from the NIST ThermoML archive (doi:10.1021/je200806n).
